Sourced from ChEMBL document CHEMBL1201862

Below, each entry is listed with its recorded GI50.
Test system: MCF7
assay.explanation: NCI tumour cell line growth inhibition, 48 h
Active and inactive are the calls of the source. Rule as the data show it: active = GI50 up to about 1.1 µM and inactive = higher.
measured.attribute: GI50

INSERT INTO assay_data (molecule, observed_value) VALUES
  ('O=C1C(=O)C(CCCO)(CCCO)CCCCCCCCC1(CCCO)CCCO', '55.1 µM (inactive)'),
  ('Cc1ccsc1/C=N/Nc1cc(C)c2ccccc2n1', '15.6 µM (inactive)'),
  ('C=CCCC(CCC=C)(C(=O)O)C(=O)O', '> 100 µM (inactive)'),
  ('C=CCC1(OCc2ccccc2)C(=O)C(=O)OC1C1COC(C)(C)O1 (stereo unspecified)', '> 100 µM (inactive)'),
  ('O=[N+]([O-])c1ccc2nc(=S)[nH]n2c1', '> 100 µM (inactive)'),
  ('Cc1cn([C@H]2C[C@](C)(CO)N(C)O2)c(=O)[nH]c1=O', '> 100 µM (inactive)'),
  ('O=c1c2ccc(S(=O)(=O)c3ccc4c(=O)n5c6ccccc6nc5c5cccc3c45)c3cccc(c32)c2nc3ccccc3n12', '> 100 µM (inactive)'),
  ('CC1=NN(c2ccccc2)C(=O)C1/N=N/c1ccc(S(N)(=O)=O)cc1 (stereo unspecified)', '> 100 µM (inactive)'),
  ('CCOC(=O)C(=[N+]=[N-])C(=O)CN1C(=O)C2CC(C)=C(C)CC2C1O (stereo unspecified)', '> 100 µM (inactive)'),
  ('COc1cccc2c3cccc(OC)c3c3[nH]cnc3c12', '1.58 µM (inactive)'),
  ('CCOP(=O)(OCC)C(Cc1ccc(Cl)cc1)NS(=O)(=O)c1ccc(C)cc1 (stereo unspecified)', '> 100 µM (inactive)');

----------
Test system: Malme-3M
assay.explanation: NCI tumour cell line growth inhibition, 48 h
Active and inactive are the calls of the source. No stated cut-off is given here; in the data, active = GI50 up to about 1.1 µM and inactive = higher.
Classes used: class 1 (active), class 0 (inactive)

INSERT INTO measurements (compound, system_name, discrete_label) VALUES
  ('CC1=NN(C(=O)CC(=O)Nc2cccc(C)c2)C(=O)C1/N=N/c1ccc(C(=O)O)cc1 (configuration not stated)', 'Malme-3M', 'class 0'),
  ('Nc1ccccc1Nc1ccccc1C(=O)[O-].Nc1ccccc1Nc1ccccc1C(=O)[O-].[Zn+2]', 'Malme-3M', 'class 0'),
  ('COC(=O)c1sc2c(=O)c(C(=O)OC)c(C(=O)OC)sc2c(=O)c1C(=O)OC', 'Malme-3M', 'class 0'),
  ('CCN(CC)CCNc1ccc2nnn3c4ccc(OC(C)=O)cc4c(=O)c1c23', 'Malme-3M', 'class 1'),
  ('O=C(O)/C(Cl)=C(\Cl)C(=O)c1ccccc1', 'Malme-3M', 'class 0'),
  ('CC1(C)O[C@@H]2[C@@H](COC(C)(C)O[C@H]2C2SCCCS2)O1', 'Malme-3M', 'class 0'),
  ('N=C(N)N/N=C/c1nc2n(c1[N+](=O)[O-])CCS2', 'Malme-3M', 'class 0'),
  ('CC(Oc1ccc(OCC2CCCCC2)cc1)C(=O)N(CCO)CCO (configuration not stated)', 'Malme-3M', 'class 0'),
  ('CCCCC(=O)Nc1ccc2cc(C(=O)OC)c(=O)[nH]c2n1', 'Malme-3M', 'class 0'),
  ('C[C@@H](C[C@@H](O)[C@H](O)C(C)(C)O)[C@H]1CC=C2[C@]3(C)[C@H](O)C[C@H]4C(C)(C)[C@H](O)CC[C@]4(C)[C@H]3CC[C@@]21C', 'Malme-3M', 'class 0'),
  ('NNC(=O)c1ccc(-n2nnc(C(=O)NN)c2C(=O)NN)cc1', 'Malme-3M', 'class 0'),
  ('Cc1ccc(C(=O)C2=CN=C3C(=O)N(c4ccccc4)N(C)C3(C)C2=N)cc1 (configuration not stated)', 'Malme-3M', 'class 0'),
  ('O=C(Cn1ccnc1[N+](=O)[O-])NCCO', 'Malme-3M', 'class 0'),
  ('COc1ccc(OC)c(C(=O)c2cccc(C(=O)c3cc(OC)ccc3OC)n2)c1', 'Malme-3M', 'class 0'),
  ('Cc1cccc2c(=O)c3c(O)cc4c(c3n(C)c12)C=CC(C)(C)O4', 'Malme-3M', 'class 0'),
  ('C=C1C(=O)O[C@@H]2CC(CO)=C([C@@H](C)CCCO)[C@@H](OC(=O)/C(C)=C\C)[C@H]12', 'Malme-3M', 'class 0'),
  ('CC(=O)CSc1c(-c2ccccc2)c(=O)n(-c2ccccc2)c(=S)n1-c1ccccc1', 'Malme-3M', 'class 0'),
  ('CCN(CC)CCC1CC/C(=C\c2ccc(OC)cc2)C1=O (configuration not stated)', 'Malme-3M', 'class 0'),
  ('Cc1cccc(NC2=NC(=O)C(CC(=O)Nc3ccc(Cl)cc3C)S2)c1 (configuration not stated)', 'Malme-3M', 'class 0'),
  ('Cn1c(N)c(Cc2ccc(Cl)cc2)c(=O)[nH]c1=O', 'Malme-3M', 'class 0'),
  ('N[C@H]1CCCC[C@@H]1N1C(=O)c2ccccc2C1(O)c1ccc(Cl)cc1 (some centres not stated)', 'Malme-3M', 'class 0'),
  ('Cc1ccc(S(=O)(=O)NC(=O)NC(CC(=O)O)C(=O)O)cc1 (configuration not stated)', 'Malme-3M', 'class 0'),
  ('O=C1C(=O)C(CCCO)(CCCO)CCCCCCCCC1(CCCO)CCCO', 'Malme-3M', 'class 0'),
  ('Nc1ccn(C2CCC(CO)O2)c(=S)n1 (configuration not stated)', 'Malme-3M', 'class 0'),
  ('CN(C)c1ccc(C(N)=O)cn1', 'Malme-3M', 'class 0'),
  ('CCOC(=O)c1ccc(/N=N\c2ccc(N(CCC#N)CCC#N)cc2C)cc1', 'Malme-3M', 'class 0'),
  ('FC(F)(F)C1(C(F)(F)F)OC(Cl)(Cl)C(Cl)(Cl)O1', 'Malme-3M', 'class 0'),
  ('CC(C)c1cccc(=O)c(O)c1', 'Malme-3M', 'class 0'),
  ('C=C1C2Oc3ccccc3C1N(c1ccccc1)O2 (configuration not stated)', 'Malme-3M', 'class 0'),
  ('Cc1ccc(C)c(N2C(=O)C(=O)C(c3nc4ccccc4o3)/C(=N\NC(=O)c3ccccc3O)C2=O)c1 (configuration not stated)', 'Malme-3M', 'class 0'),
  ('O=C1C2=C(CC3C(C2)C3(Br)Br)C(=O)C2=C1CC1C(C2)C1(Br)Br (configuration not stated)', 'Malme-3M', 'class 0'),
  ('c1ccc2c(c1)[C@@H]1O[C@@H]1[C@@]13O[C@@]21[C@H]1O[C@H]1c1ccccc13', 'Malme-3M', 'class 0'),
  ('O=c1ccn(Cc2ccccc2CCl)c(=O)[nH]1', 'Malme-3M', 'class 0'),
  ('Cc1cc([N+](=O)[O-])c(C)c2c1[nH]c1ccc(Cl)cc12', 'Malme-3M', 'class 0'),
  ('COc1ccc(-c2cc3ccccc3oc2=O)cc1OC', 'Malme-3M', 'class 0'),
  ('CCOP(=O)(OCC)C(Cc1ccc(Cl)cc1)NS(=O)(=O)c1ccc(C)cc1 (configuration not stated)', 'Malme-3M', 'class 0'),
  ('O=c1[nH]c(-c2ccccc2)nc2c1sc1nc3ccccc3n12', 'Malme-3M', 'class 0'),
  ('COc1ccc(-c2cc(-c3ccc(Nc4ccnc5cc(C(F)(F)F)ccc45)cc3)[nH]c(=O)c2C#N)cc1', 'Malme-3M', 'class 0'),
  ('O=C(O)c1[nH]c(=O)[nH]c(=O)c1CN1CCCCC1', 'Malme-3M', 'class 0'),
  ('CN(C)CCN1N=Nc2cccc3cccc1c23', 'Malme-3M', 'class 0'),
  ('COc1ccc(Cn2nc(OCc3ccccn3)c3cc([N+](=O)[O-])ccc32)cc1', 'Malme-3M', 'class 0'),
  ('NNC(=O)Cn1ccnn1', 'Malme-3M', 'class 0');

----------
Test system: RPMI-8226
assay.explanation: NCI tumour cell line growth inhibition, 48 h
Activity calls are given as the source filed them. No stated cut-off is given here; in the data, active = GI50 up to about 1.1 µM and inactive = higher.
Outcome codes: 1 (active), -1 (inactive)

INSERT INTO results (compound, discrete_label) VALUES
  ('COc1cccc2c3cccc(OC)c3c3[nH]cnc3c12', -1),
  ('COc1cc(OC)c(C/C=C/c2ccccc2)cc1O', -1),
  ('CCCCCC1=C/C(=C\c2[nH]c(-c3ccc[nH]3)cc2OC)N=C1C', 1),
  ('O=C1OC(c2ccccc2)(c2ccccc2)c2ccc3ccc(F)cc3c21', -1),
  ('CC(=O)CSc1c(-c2ccccc2)c(=O)n(-c2ccccc2)c(=S)n1-c1ccccc1', -1),
  ('Cc1cc(N(CCC#N)CCC#N)ccc1/C=C1/N=C(c2ccccc2)N(N)C1=O', -1),
  ('CCOP(=O)(OCC)C(Cc1ccc(Cl)cc1)NS(=O)(=O)c1ccc(C)cc1 (configuration not stated)', -1),
  ('CC1(C)OC[C@@H]([C@@]2(COC(c3ccccc3)(c3ccccc3)c3ccccc3)CC=CC(=O)O2)O1', -1),
  ('O=c1c(Br)cc2nc3ccccc3sc-2c1Br', -1),
  ('O=C(O)c1nnsc1-c1csnn1', -1),
  ('COc1cc(OC)c(NC2=NCCO2)cc1Cl', -1),
  ('NC(=O)CC(N/C=C1/N=C(c2ccccc2)OC1=O)C(=O)O (configuration not stated)', -1),
  ('CC1=NN(C(=O)CC(=O)Nc2cccc(C)c2)C(=O)C1/N=N/c1ccc(C(=O)O)cc1 (configuration not stated)', -1),
  ('COc1ccc([C@@H]2C[C@@H]3C(=O)OC(=O)[C@@H]3c3c2c2ccccc2n3C)cc1', -1),
  ('CC(C)(c1ccccc1)c1ccc(OC#N)cc1', -1),
  ('C/C(=N/O)C1CC=C(S(=O)(=O)c2ccccc2)C1 (configuration not stated)', -1),
  ('COc1ccc(Cn2nc(OCc3ccccn3)c3cc([N+](=O)[O-])ccc32)cc1', -1),
  ('CCCCc1c2c(nc3c1CCCC3=O)C(=O)CCC2', -1),
  ('Cc1ccc(C(=O)C2=CN=C3C(=O)N(c4ccccc4)N(C)C3(C)C2=N)cc1 (configuration not stated)', -1),
  ('O=c1c2ccc(S(=O)(=O)c3ccc4c(=O)n5c6ccccc6nc5c5cccc3c45)c3cccc(c32)c2nc3ccccc3n12', -1),
  ('NS(=O)(=O)c1ccc(NC(=O)Nc2cccc3ccccc23)cc1', -1),
  ('CCN(CC)CC1CCCCN1CC(=O)N1c2ccccc2C(=O)Nc2cccnc21 (configuration not stated)', -1);
